Catalogue of compounds with associated normalized growth
# measurement.protocol: chemical genetic growth profiling, strain panel (AID 1159580);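 note: tested at 20 µM; growth read once vehicle control cultures reached saturation at 30 °C; 1 = growth at the plate median or of vehicle wells; lower values mean less growth of the strain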
# condition.label: S. cerevisiae deletion strains, growth OD, locus YDL214C, strain PRR2, stronger effect = lower value
Hit rate of the full screen: of about 5,500 compounds, about 2,000 (36%) were called active. Inconclusive results (about 18%) are left out. The list shows a part of the results.
experimental.endpoint: normalized growth

line.notation | measured
COc1ccc(Oc2ccc([N+](=O)[O-])cc2C(=O)O/N=C(/N)c2ccc(C(F)(F)F)cc2)cc1 | 1.01
CC(C)(C)c1ccc(-c2cc(NC(=O)c3ccc(Cl)cc3)n[nH]2)cc1 | 1.04
O=S(=O)(Nc1c(F)cccc1F)c1ccc(Cl)c(Cl)c1 | 0.984
Cc1cc(Sc2c([N+](=O)[O-])cc(C(F)(F)F)cc2[N+](=O)[O-])c(Cl)cc1Cl | 0.98
